Provide the recorded EC50 for the entries that follow.
- Tested on: MT4
- Assay comment: Anti HIV-1 activity in human lymphocyte MT-4 cell line
- Type: functional, cell-based
# number only, unit µM dropped from output

Please list EC50 recorded for the compound COC(=O)C(C)NP(=O)(OCC1OC(n2cc(C)c(=O)[nH]c2=O)CC1N=[N+]=[N-])Oc1ccc(F)cc1 (centres undefined)
0.041

Please list EC50 recorded for the compound COC(=O)[C@H](C)NP(=O)(OC[C@H]1O[C@@H](n2cc(C)c(=O)[nH]c2=O)C[C@@H]1N=[N+]=[N-])Oc1ccccc1 (some centres undefined)
0.006

Please list EC50 recorded for the compound CCc1ccc(OP(=O)(NC(C)C(=O)OC)OCC2OC(n3cc(C)c(=O)[nH]c3=O)CC2N=[N+]=[N-])cc1 (centres undefined)
0.068

Please list EC50 recorded for the compound CCCc1ccc(OP(=O)(NC(C)C(=O)OC)OCC2OC(n3cc(C)c(=O)[nH]c3=O)CC2N=[N+]=[N-])cc1 (centres undefined)
0.043

// provenance: ChEMBL document CHEMBL1126638
